- Test system: LOX IMVI melanoma
- Assay: NCI tumour cell line growth inhibition, 48 h
Would you kindly list TGI for each of these compounds?

Can you give me TGI for all of these, one by one?
1. COC(=O)/C(=N/NC(N)=O)C(C(=O)OC)C(=O)C(=O)Nc1ccc(Cl)cc1 (centres undefined)
2. O=C1c2ccccc2C(=O)N1c1nc(-c2ccc(Cl)cc2)cc(N2N=C(c3ccc(Br)cc3)CC2c2ccccc2)n1 (centres undefined)
3. COC(=O)c1c(-c2ccc(Cl)cc2)cc2c3ccccc3n(C)c2c1C(=O)OC

A:
> 100 µM
3.78 µM
> 100 µM

Q: Reported TGI for N#CC1C=Cc2ccccc2N1C(=O)Oc1ccccc1 (centres undefined) : what is it?
A: > 100 µM

Where do these numbers come from? They come from PubChem BioAssay (NCI).
